experiment.description: Cytotoxicity against human fibroblast cells assessed as viable cells at 10 uM by trypan blue staining based assay
Format: cell-based
cond: read-out: Activity
readout.type: viability at 10 µM

compound: COc1ccc(C2NC(C(=O)O)Cc3c2[nH]c2ccccc32)cc1OC (configuration not stated)
observed.measurement: 92%
//
compound: O=C1CN(CCN2CC(=O)N(Cc3ccccc3)C(=O)C2)CC(=O)N1Cc1ccccc1
observed.measurement: 100%
//
compound: COc1cc(-n2c(CCc3nc(-c4ccc(Cl)cc4)no3)n[nH]c2=S)c(OC)cc1Cl
observed.measurement: 74%
//
compound: CCN(Cc1ccccc1)C(=O)C1CCN(Cc2c[nH]c3ccccc23)CC1
observed.measurement: 56%
//
compound: C=CCN1CC[C@]23c4c5ccc(O)c4O[C@H]2C(=O)CC[C@@]3(O)[C@H]1C5
observed.measurement: 100%
//
compound: CC1(CN2CCCC2)CCC(NC(=O)C(c2ccccc2)c2ccccc2)C(C)(C)O1 (configuration not stated)
observed.measurement: 88%
//
compound: CC1CN(CCOC(=O)C(c2ccccc2)C2C=CCCC2)CC1C (configuration not stated)
observed.measurement: 100%
//
compound: CN1CCc2ccccc2C1Cc1cc(OCc2ccccc2)ccc1N (configuration not stated)
observed.measurement: 82%
//
compound: N=c1[nH]c(=O)n(CCCCOc2ccccc2)cc1-c1ccc(Cl)c(Cl)c1
observed.measurement: 100%
//
compound: CC1CN(CC2COc3ccccc3O2)C(C)CN1CC1COc2ccccc2O1 (configuration not stated)
observed.measurement: 100%
//
compound: CC1(C)CCN(CCOC(=O)C(c2ccccc2)C2C=CCCC2)C1 (configuration not stated)
observed.measurement: 100%
//
compound: Cc1ccc(N2CCN(CCCOC(=O)Nc3cccc4ccccc34)CC2)cc1
observed.measurement: 89%
//
compound: CN/N=C(\C)C(CN1CCCCC1)C(C1=C(O)c2ccccc2OC1)c1ccccc1 (configuration not stated)
observed.measurement: 100%
//
compound: CCCNCCC(O)c1cc(C(F)(F)F)nc2c(C(F)(F)F)cccc12 (configuration not stated)
observed.measurement: 67%
//
compound: COc1cc(C2CNCc3cc(OC)c(O)cc32)ccc1O (configuration not stated)
observed.measurement: 100%
//
compound: CN(C)C1C(c2ccccc2)S(=O)(=O)C1C1CS(=O)(=O)C1c1ccccc1 (configuration not stated)
observed.measurement: 39%
//
compound: Cc1nn(C(=O)Cc2ccccc2)c2c1C(c1ccc(O)cc1)SC(=N)N2 (configuration not stated)
observed.measurement: 100%
